Tested on: SF-268 CNS
Assay: NCI tumour cell line growth inhibition, 48 h
measure-name: TGI

Example cases with answers are listed next.
compound: N#CC(N)(C(=O)C(=O)NCCCNC(=O)C(=O)C(N)(C#N)c1ccc(Cl)cc1)c1ccc(Cl)cc1 (stereo unspecified)
TGI: > 100 µM
--
compound: Cc1nc2ccccc2nc1N1CCCC1
TGI: > 100 µM
--
compound: CC(=O)OCC12C(OC(C)=O)C[C@@H](C)C3(CC(c4ccoc4)OC3=O)C1CCC(OC(C)=O)C21CO1 (stereo partly specified)
TGI: > 100 µM
--
compound: O=C(Nc1ccc(I)cc1F)c1cc(F)ccc1O
TGI: > 31.1 µM
--
compound: O=c1[nH]c(=O)c2c([nH]1)[nH]c1ccccc12
TGI: > 100 µM

Req: // map COc1ccc(Nc2ccnc3cc(Cl)ccc23)cc1CN(CCCl)CCCl to recorded TGI (system: SF-268 CNS)
Resp: 4.89 µM

Req: I'm curious: which TGI was measured for COC(=O)C1=C(C)NC(C)=C(C(=O)OC)C1c1ccccc1[N+](=O)[O-] tested on SF-268 CNS?
Resp: > 100 µM

Req: Give TGI (SF-268 CNS) of the following compound: COC(=O)CCCCCCCCC(=O)c1c(C)[nH]c(/C=C2\N=C(c3ccc[nH]3)C=C2OC)c1C
Resp: > 100 µM

* * *

Catalogue of TGI readings, one per entry.
Test system: TK-10 renal
Experiment: NCI tumour cell line growth inhibition, 48 h

Would you please look over these solved cases?
compound: Cc1cc(S(=O)(=O)Nc2n[nH]c(N)n2)c(S)cc1Cl
TGI: > 10 µM
//
compound: O=C(N/N=C\c1cc(Br)cc(Br)c1O)N/N=C/c1cc(Br)cc(Br)c1O
TGI: 26.2 µM
//
compound: CCCCCCCC(=O)O[C@H]1[C@H]2[C@@H](CC1(C)C)C(=O)[C@]13O[C@H]1C(=O)[C@]1(CO1)[C@]23C
TGI: 6.47 µM

Req: So what's the measured TGI for this one? Cc1nc(C)c(C(=O)NNC(=O)c2ccccc2)cc1C(=O)NNC(=O)c1ccccc1
Resp: > 100 µM

Req: What value of measured TGI is listed for O=C1/C(=C/Cc2ccco2)N=C(c2ccccc2)N1c1nc2c(Cl)cc(Cl)cc2s1 ?
Resp: > 100 µM

Req: Requested field: TGI. Item: COC(=O)[C@@H](C)C[C@H](Cc1ccccc1)NC(=O)c1csc([C@@H](C[C@H](C(C)C)N(C)C(=O)[C@@H](NC(=O)CN(C)C)C2CC2)OC(C)=O)n1
Resp: > 16.5 µM

* * *

System: SK-MEL-2 melanoma
Assay: NCI tumour cell line growth inhibition, 48 h; in the data active means GI50 below about 0.43 µM; inactive means the rest
Bench note: report the call from active, inactive

Worked set:
compound-string: Cn1cc(C2=C(c3cn(C)c4cc(Cl)ccc34)C(=O)NC2=O)c2ccccc21
label-class: active
--
compound-string: CO[C@H]1/C=C/C=C/C=C/C[C@H](OC(=O)[C@@H](C)NC(=O)C2CCCCC2)[C@H](C)[C@@H](O)/C(C)=C\CCC2=CC(=O)C=C(NC(=O)C1)C2=O
label-class: active

Pending compound:
Req: I would be grateful if you could indicate the recorded call for COc1cc2cc(Oc3ccc(NC(=O)Nc4cc(C(F)(F)F)cc(C(F)(F)F)c4)cc3)c(C)nc2cc1OCCN1CCCCC1 .
Resp: inactive
